- TESTED_TARGET: RPA (heterotrimer RPA1/RPA2/RPA3) (Homo sapiens, UniProt P27694;P15927;P35244 1-616;1-270;1-121)
- Sequence (P27694 whole entry, chain 1 of 3): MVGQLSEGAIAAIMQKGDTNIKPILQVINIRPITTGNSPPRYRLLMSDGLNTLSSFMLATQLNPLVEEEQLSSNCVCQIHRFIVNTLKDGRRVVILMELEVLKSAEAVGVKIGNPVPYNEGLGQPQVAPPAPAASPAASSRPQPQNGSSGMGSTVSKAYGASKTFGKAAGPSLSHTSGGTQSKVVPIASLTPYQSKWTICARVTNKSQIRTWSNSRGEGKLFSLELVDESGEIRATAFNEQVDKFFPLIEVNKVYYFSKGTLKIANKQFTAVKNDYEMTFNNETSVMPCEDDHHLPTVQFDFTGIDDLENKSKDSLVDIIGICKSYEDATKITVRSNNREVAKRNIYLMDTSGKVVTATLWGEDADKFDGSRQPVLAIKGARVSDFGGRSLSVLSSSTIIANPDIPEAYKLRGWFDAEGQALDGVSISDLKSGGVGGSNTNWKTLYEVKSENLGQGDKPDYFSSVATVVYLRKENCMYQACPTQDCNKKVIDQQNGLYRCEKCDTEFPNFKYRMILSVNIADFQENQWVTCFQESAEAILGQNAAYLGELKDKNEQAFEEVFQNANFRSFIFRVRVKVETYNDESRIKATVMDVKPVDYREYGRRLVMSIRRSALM
- Sequence (P15927 whole entry, chain 2 of 3): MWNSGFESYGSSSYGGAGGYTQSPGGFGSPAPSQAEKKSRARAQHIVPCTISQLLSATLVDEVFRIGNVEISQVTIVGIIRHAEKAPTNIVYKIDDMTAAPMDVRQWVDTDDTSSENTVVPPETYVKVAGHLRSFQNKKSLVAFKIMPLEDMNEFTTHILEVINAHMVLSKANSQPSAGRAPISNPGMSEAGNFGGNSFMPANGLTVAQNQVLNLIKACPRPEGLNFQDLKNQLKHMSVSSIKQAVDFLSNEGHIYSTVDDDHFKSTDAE
- Sequence (P35244 whole entry, chain 3 of 3): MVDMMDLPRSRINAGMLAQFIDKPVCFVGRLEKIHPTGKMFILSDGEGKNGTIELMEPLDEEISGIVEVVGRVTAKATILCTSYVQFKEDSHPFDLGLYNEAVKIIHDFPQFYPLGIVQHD
- ASSAY_NAME: fluorescence polarization
PARAMETER: pKd
// returns pKd (minus log10 of molar concentration), number only

3G4L3 (FP substrate) (mixed) DNA 1: GCGTGGCACCGGTAATAGGAAATAGGAGATTGGGTTAGGGTTAGGGTTAGGGTT DNA 2: TCCTATTTCCTATTACCGGTGCCACGC : 8.20

Q) Read the entry 3G4L1 (FP substrate) (mixed) DNA 1: GCGTGGCACCGGTAATAGGAAATAGGAGATTGGGTGGGTGGGTGGGTT DNA 2: TCCTATTTCCTATTACCGGTGCCACGC and write its reported pKd.
A) 8.07
